# target: PTPN3, P26045
# Sequence (P26045 505-587): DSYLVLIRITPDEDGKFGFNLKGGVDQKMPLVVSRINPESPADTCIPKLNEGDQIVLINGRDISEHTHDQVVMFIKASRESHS
# methodSummary: holdup assay
# Set-up: key: below the threshold = too weak to quantify, mostly under pKd 3.1 to 4
# conditionDetails: plain residues with an end cap or a label only (N-terminal biotin on a linker: ttds)
Catalogue of pKd values

Previously resolved entries follow.
[
  {
    "binder": "DPRNTQTSQI [ABRAXAS2, Q15018]",
    "pKd": 3.77
  },
  {
    "binder": "PKRPFVESNV [TANC2, Q9HCD6]",
    "pKd": 4.34
  },
  {
    "binder": "SEKHFRETEV [HTLV1-TAX1, P03409]",
    "pKd": 5.26
  },
  {
    "binder": "LCALPKVTTV [AGMAT, Q9BSE5]",
    "pKd": 4.4
  }
]

Now let's try a different one.
Ask | Bench note: what pKd did LDSQIQETSI [MAP4, P27816] show?
Reply | 4.92
